target: KRAS G12V (Homo sapiens, UniProt P01116, G12V); construct: SW620-KRAS (G12V)-HiBit-KI cell (Pharmaron); host or cells: SW620-KRAS (G12V)-HiBit-KI cells (HiBiT knock-in at the endogenous KRAS locus); test: KRAS G12V HiBit assay; type: cell-based; conditions: SW620-KRAS (G12V)-HiBit-KI cells, compound treatment for 24 hours, class symbols
Sequence (P01116 1-188 isoform P01116-2 G12V): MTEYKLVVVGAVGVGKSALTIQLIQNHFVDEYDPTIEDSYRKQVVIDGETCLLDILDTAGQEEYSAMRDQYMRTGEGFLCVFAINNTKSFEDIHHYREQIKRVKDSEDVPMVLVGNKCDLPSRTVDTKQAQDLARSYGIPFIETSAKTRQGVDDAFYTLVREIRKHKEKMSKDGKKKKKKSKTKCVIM
measure: DC50

compound	DC50
CCc1c(F)ccc2cc(O)cc(-c3ncc4c(N5CCC[C@@](C)(O)C5)nc(OC[C@]56CCCN5[C@H](COC(=O)N5CCC(c7ccc8c(c7)n(C)c(=O)n8C7CCC(=O)NC7=O)CC5)CC6)nc4c3F)c12 (some centres unmarked) [Compound 307]	> 100 nM

Kindly note the recorded DC50 for CCc1c(F)ccc2cc(O)cc(-c3ncc4c(N5CCC[C@@](C)(O)C5)cc(OC[C@@]56CCCN5[C@H](COC(=O)N5CCC(CN7CCC(c8ccc9c(c8)n(C)c(=O)n9C8CCC(=O)NC8=O)CC7)CC5)CC6)nc4c3F)c12 (some centres unmarked) [Compound 492] , which is > 100 nM

---

target: KRAS G12D (Homo sapiens, UniProt P01116, G12D); construct: AsPc-1-KRAS (G12D)-HiBit-KI cell (Pharmaron); host or cells: AsPc-1-KRAS (G12D)-HiBit-KI cells (HiBiT knock-in at the endogenous KRAS locus); test: KRAS G12D HiBit assay; format: cell-based; details: AsPc-1-KRAS (G12D)-HiBit-KI cell, compound treatment for 24 hours; class symbols
Sequence (P01116 1-188 isoform P01116-2 G12D): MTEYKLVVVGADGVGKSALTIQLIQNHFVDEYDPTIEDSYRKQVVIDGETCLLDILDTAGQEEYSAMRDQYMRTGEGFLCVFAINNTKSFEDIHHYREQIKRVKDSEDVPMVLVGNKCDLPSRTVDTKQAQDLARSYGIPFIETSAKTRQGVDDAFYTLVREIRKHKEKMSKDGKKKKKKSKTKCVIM
measure: Dmax

molecule	Dmax
CCc1c(F)ccc2cc(O)cc(-c3ncc4c(N5CCC[C@@](C)(O)C5)nc(OC[C@@]56CCCN5[C@H](COC(=O)N5CCC(CN7CCC(c8ccc9c(C%10CCC(=O)NC%10=O)nn(C)c9c8F)CC7)CC5)CC6)nc4c3F)c12 (some centres unmarked)	> 50%

Just so you know, measured Dmax for C#Cc1c(F)ccc2cc(O)cc(-c3ncc4c(N5CCCC(F)(F)C5)nc(OCC5(CN6CCN(CC7CCN(c8ccc9c(c8)n(C)c(=O)n9C8CCC(=O)NC8=O)CC7)CC6)CC5)nc4c3F)c12 (centres unmarked) came out at > 50%

So, C#Cc1c(F)ccc2cc(O)cc(-c3ncc4c(N5CCCC(C#N)CC5)nc(OC[C@@]56CCCN5[C@H](COC(=O)N5CCC(CN7CCC(c8ccc9c(c8)n(C)c(=O)n9C8CCC(=O)NC8=O)CC7)CC5)CC6)nc4c3F)c12 (some centres unmarked) ? Its Dmax was > 50%

Item: CCc1c(F)ccc2cccc(-c3ncc4c(N5CCC[C@@](C)(O)C5)nc(OC[C@@]56CCCN5[C@H](COC(=O)NCCOCCOCCOc5ccc7c(c5)n(C)c(=O)n7C5CCC(=O)NC5=O)CC6)nc4c3F)c12 (some centres unmarked) | Dmax: 15 to 50%

Record summary for C#Cc1c(F)ccc2cc(O)cc(-c3ncc4c(N5CCCC(F)(F)C5)nc(OC[C@@]56CCCN5[C@H](COC(=O)N5CCC(CN7CCC(c8ccc9c(c8)n(C)c(=O)n9C8CCC(=O)NC8=O)CC7)CC5)CC6)nc4c3F)c12 (some centres unmarked) : reported Dmax = > 50%

Reported Dmax ( CCc1c(F)ccc2cc(O)cc(-c3ncc4c(N5CCC[C@@](C)(O)C5)nc(OC[C@@]56CCCN5[C@H](COC(=O)N5CCC(CN7CCN(c8ccc9c(c8)n(C)c(=O)n9C8CCC(=O)NC8=O)CC7)CC5)CC6)nc4c3F)c12 (some centres unmarked) ) = > 50%

Notebook: C#Cc1c(F)ccc2cccc(-c3ncc4c(N5CCC[C@@](C)(O)C5)nc(OC[C@@]56CCCN5[C@H](COC(=O)NCCOc5ccc7c(c5)n(C)c(=O)n7C5CCC(=O)NC5=O)CC6)nc4c3F)c12 (some centres unmarked) , Dmax read as < 15%

---

Molecular target: KRAS G12V (Homo sapiens, UniProt P01116, G12V)
Construct: SW620-KRAS (G12V)-HiBit-KI cell (Pharmaron); host or cells: SW620-KRAS (G12V)-HiBit-KI cells (HiBiT knock-in at the endogenous KRAS locus)
Experiment: KRAS G12V HiBit assay
Type: cell-based
Details: SW620-KRAS (G12V)-HiBit-KI cells, compound treatment for 24 hours, class symbols
Description: Day 1. […] Rinsed cultivated cells in T-75 flasks with 5 mL PBS (Solarbio, P1020-500). […] Inactivated trypsin by adding excessive serum containing medium. Harvested the cells from flask into cell culture medium and counted the cell number. Day 2. Test compounds were dissolved at 0.3 mM in DMSO (Solarbio, D8371) as stock solution. […] The degradation activity was calculated using the following formula: […]
measure: DC50

compound	system	DC50
C#Cc1c(F)ccc2cc(O)cc(-c3ncc4c(N5CCC[C@@](C)(O)C5)nc(OC[C@@]56CCCN5[C@H](COC(=O)N5CCC(N7CC(N8CCC(c9ccc%10c(c9)n(C)c(=O)n%10C9CCC(=O)NC9=O)CC8)C7)CC5)CC6)nc4c3F)c12 (some centres unmarked) [Compound 414]	KRAS G12V (Homo sapiens, UniProt P01116, G12V)	10 to 100 nM

Attention now turns to another entry.
So, CCc1c(F)ccc2cc(O)cc(-c3ncc4c(N5CCC[C@@](C)(O)C5)nc(OC[C@]56CCCN5[C@H](COC(=O)N5CCC(CCCOc7ccc8c(c7)n(C)c(=O)n8C7CCC(=O)NC7=O)CC5)CC6)nc4c3F)c12 (some centres unmarked) [Compound 302] ? Its DC50 was < 10 nM

---

molecular target: KRAS G12D (Homo sapiens, UniProt P01116, G12D); construct: AsPc-1-KRAS (G12D)-HiBit-KI cell (Pharmaron); host or cells: AsPc-1-KRAS (G12D)-HiBit-KI cells (HiBiT knock-in at the endogenous KRAS locus); assay: KRAS G12D HiBit assay; assay type: cell-based; conditions: AsPc-1-KRAS (G12D)-HiBit-KI cell, compound treatment for 24 hours, absolute DC50; numeric bounds given in place of class symbols
# DC50 per record follows

compound	DC50
CCc1c(F)ccc2cc(O)cc(-c3ncc4c(N5CCC[C@@](C)(O)C5)nc(OC[C@@]56CCCN5[C@H](CN5CCC(OCCCc7ccc8c(c7)n(C)c(=O)n8C7CCC(=O)NC7=O)CC5)CC6)nc4c3F)c12 (some centres unmarked)	> 100 nM

Alright, here's another compound for you.
DC50 for CCc1c(F)ccc2cc(O)cc(-c3ncc4c(N5CCC[C@@](C)(O)C5)nc(OC[C@]56CCCN5[C@H](COC(=O)N5CCC(Oc7ccc8c(c7)n(C)c(=O)n8C7CCC(=O)NC7=O)CC5)CC6)nc4c3F)c12 (some centres unmarked) is > 100 nM

---

biological target: KRAS G12V (Homo sapiens, UniProt P01116, G12V); construct: SW620-KRAS (G12V)-HiBit-KI cell (Pharmaron); host or cells: SW620-KRAS (G12V)-HiBit-KI cells (HiBiT knock-in at the endogenous KRAS locus); assay: KRAS G12V HiBit assay; format: cell-based; conditions: SW620-KRAS (G12V)-HiBit-KI cells, compound treatment for 24 hours, class symbols
Overview of reported DC50 across a group of compounds:

Solved cases (4 shown):
compound	measure	recorded-measurement
CCc1c(F)ccc2cc(O)cc(-c3ncc4c(N5CCCOCC5)nc(OC[C@@]56CCCN5[C@H](COC(=O)N5CCC(CN7CCC(c8ccc9c(c8)n(C)c(=O)n9C8CCC(=O)NC8=O)CC7)CC5)CC6)nc4c3F)c12 (stereo partly drawn) [Compound 422]	DC50	< 10 nM
CCc1c(F)ccc2cc(O)cc(-c3ncc4c(N5CCC[C@@](C)(O)C5)nc(OC[C@@]56CCCN5[C@H](COC(=O)N5CCC(OCCC#Cc7ccc8c(c7)n(C)c(=O)n8C7CCC(=O)NC7=O)CC5)CC6)nc4c3F)c12 (stereo partly drawn) [Compound 371]	DC50	< 10 nM
C#Cc1c(F)ccc2cc(O)cc(-c3ncc4c(N5CCC[C@@](C)(O)C5)nc(OC[C@@]56CCCN5[C@H](COC(=O)N5CC7(CCC(CN8CCC(c9ccc%10c(c9)n(C)c(=O)n%10C9CCC(=O)NC9=O)CC8)CC7)C5)CC6)nc4c3F)c12 (stereo partly drawn) [Compound 421]	DC50	< 10 nM
CCc1c(F)ccc2cc(O)cc(-c3ncc4c(N5CCC[C@@](C)(O)C5)nc(OC[C@@]56CCCN5[C@H](COC(=O)N5CCC(OCCC#Cc7cccc8c7n(C)c(=O)n8C7CCC(=O)NC7=O)CC5)CC6)nc4c3F)c12 (stereo partly drawn) [Compound 370]	DC50	< 10 nM

Recorded DC50 (compound C#Cc1c(F)ccc2cc(O)cc(-c3ncc4c(N5CCC[C@@](C)(O)C5)nc(OC[C@@]56CCCN5[C@H](COC(=O)N5CCC7(CC5)CC(N5CCC(c8cccc9c8n(C)c(=O)n9C8CCC(=O)NC8=O)CC5)C7)CC6)nc4c3F)c12 (stereo partly drawn) [Compound 387] ): < 10 nM

DC50 reported for this compound C#Cc1c(F)ccc2cc(O)cc(-c3ncc4c(N5CCC[C@@](C)(O)C5)nc(OC[C@@]56CCCN5[C@H](COC(=O)N5CCC(OCC#Cc7cccc8c7n(C)c(=O)n8C7CCC(=O)NC7=O)CC5)CC6)nc4c3F)c12 (stereo partly drawn) [Compound 372] : 10 to 100 nM

Please fill in: DC50 reported for C#Cc1c(F)ccc2cccc(-c3ncc4c(N5CCC[C@@](C)(O)C5)nc(OC[C@@]56CCCN5[C@H](COC(=O)N5CCC(CN7CCC(c8ccc9c(c8)n(C)c(=O)n9C8CCC(=O)NC8=O)CC7)CC5)CC6)nc4c3F)c12 (stereo partly drawn) [Compound 3] = > 100 nM

Record summary for C#Cc1c(F)ccc2cc(O)cc(-c3ncc4c(N5CCC[C@@](C)(O)C5)nc(OC[C@@]56CCCN5[C@H](COC(=O)N5CCCC7(C5)CN(C5CCN(c8ccc9c(c8)n(C)c(=O)n9C8CCC(=O)NC8=O)CC5)C7)CC6)nc4c3F)c12 (stereo partly drawn) [Compound 328] : reported DC50 = > 100 nM

According to the records, this compound C#Cc1c(F)ccc2cccc(-c3ncc4c(N5CCCC(C#N)CC5)nc(OC[C@@]56CCCN5[C@H](COC(=O)NCCOCCOc5ccc7c(c5)n(C)c(=O)n7C5CCC(=O)NC5=O)CC6)nc4c3F)c12 (stereo partly drawn) [Compound 117] displays DC50 of > 100 nM
